Value source: PubChem BioAssay (NCI)

Give TGI for every item shown.
Test system: KM12 colon
measurementDescription: NCI tumour cell line growth inhibition, 48 h
Where a SMILES comes first, the peptide text is derived from it. The star is where a group is joined. Cbz = O=C(OCc1ccccc1)*; CH2Cl = ClC*

Consider the worked cases shown below.
compound	endpointResult
CCOC(=O)C12OC(CCC1=O)C(C(=O)OC)=C2C(=O)OC (stereo unspecified)	> 10 µM
Cc1cc(Cl)ccc1NC(=O)C(=O)Cc1nc2ccccc2o1	> 100 µM
C/C=C(/C)C(=O)O[C@@H]1CCN2CC[C@H](COC(=O)/C(=C/C)CO)C12 (stereo partly specified)	> 100 µM
O=[N+]([O-])/C(C(Cl)=C(Cl)Cl)=C(/Cl)Sc1ccccc1	32 µM
N#CCCN(C(=O)Nc1ccccc1)[C@H]1CCCC[C@@H]1N(C(=O)Nc1ccccc1)c1ccccc1	> 100 µM
[N-]=[N+]=N[C@H]1C[C@@H](CO)O[C@H]1n1cnc2c(N)ncnc21	> 100 µM
O=c1c(/C=C/c2c(O)ccc3ccccc23)nnc2sc(-c3cccc(Br)c3)nn12	63.6 µM
CC(C)CC(NC(=O)OCc1ccccc1)C(=O)NC(Cc1ccccc1)C(=O)CCl (stereo not drawn) (Cbz-Leu-Phe-CH2Cl; configuration not given here)	35.3 µM
CCCCCCOC(=O)/C=C/[C@]1(CO)C/C(=C/CC(C(C)C)C(C)C)C(=O)O1	33.3 µM
Cc1ccnc2[nH]c3ccccc3c(=O)c12	50.3 µM

Give TGI for all compounds that follow.
1. CSc1ncnc2c1ncn2CCC(=O)OC(C)(C)C
2. COc1cc2c(c(OC)c1OC)-c1ccc(SC)c(=O)cc1C(NC=O)CC2 (stereo unspecified)
3. CCOC(=O)CN1C(=O)c2ccc(NC(=O)C(=O)O)cc2S1(=O)=O
4. CC(OC(C)(C)C)[C@H](NC(=O)OCC(Cl)(Cl)Cl)C(=O)O (stereo partly specified)
5. CC[C@H]1[C@@H]2C=C[C@@H]3[C@H]4C/C=C\C(=O)NCCC[C@@H]5NC(=O)/C(=C(O)/C=C/[C@@H]4C[C@@H]3[C@H]2C[C@H]1C)C5=O
6. OCC1OC(c2nc(C3=NCCCN3)cs2)C(O)C1O (stereo unspecified)

["> 100 µM", "< 0.0138 µM", "> 100 µM", "> 100 µM", "9.88 µM", "> 10 µM"]

====

Tested on: CAKI-1 renal
measurementDescription: NCI tumour cell line growth inhibition, 48 h
measurementType: TGI

As a guide, the following entries are already answered.
compound	TGI
COc1ccc(C(=O)/C=C/c2cc(-c3cc(OC)c(OC)c(OC)c3)n[nH]2)cc1OC	5.46 µM
CC(C)Oc1ccc2cc(-c3nn(CC4CCNCC4)c4ncnc(N)c34)ccc2c1	22.9 µM
COc1cc2c(cc1OCCCNC(=O)c1cccc3c(=O)c4ccccc4[nH]c13)N=C[C@@H]1CCCN1C2=O	0.571 µM
Cc1cc(S(=O)(=O)Nc2n[nH]c(N)n2)c(SCC(=O)O)cc1Cl	> 10 µM
NNC(=O)c1n[nH]nc1C(=O)NN	32.6 µM
COc1cc2c3c(n(C)c(=O)c2cc1OC)-c1cc2c(cc1/C3=C\CN)OCO2	1.81 µM
Clc1ccc(C2C3COc4ccccc4C3=NN2c2ccccc2)cc1 (centres undefined)	> 100 µM
COc1cc(C2c3cc4c(cc3OC3(OC)COC(=O)C23)OCO4)cc(OC)c1OC(C)=O (centres undefined)	> 100 µM

Would you mind listing TGI for each of the following compounds?
1. O=C1/C(=C/c2ccccc2S)N=C(c2ccccc2)N1c1nc2c(Cl)cc(Cl)cc2s1
2. CCCC(=O)Nc1cc2c3c(c1)CCCN3CCC2
3. S=C(S)NCNC(=S)S.[Zn+2]

1: > 100 µM; 2: > 10 µM; 3: > 100 µM
